test system: crabgrass (Digitaria sanguinalis); experiment: Test A pre/postemergence; format: in vivo; details: Preemergence, 125 g ai/ha; 0 to 100 scale where 0 is no effect and 100 is complete control; approximately ten days
Recorded Plant response rating, Crabgrass values for a group of molecules are listed next.

molecule	Plant response rating, Crabgrass
CCOC(=O)c1nc(-c2cccc(Cl)c2)nc(N)c1Cl	10
CCOC(=O)c1nc(-c2ccc(Cl)cc2Cl)nc(N)c1Br	0
Nc1nc(C2CC2)nc(C(=O)OCC2COC(=O)O2)c1Cl (centres unmarked)	20
COC(=O)c1nc(-c2ccc(C)c(F)c2)nc(N)c1Cl	0
Nc1nc(C2CC2)nc(C(=O)OCC2CCCO2)c1Cl (centres unmarked)	50
CC(C)c1nc(N)c(Cl)c(C(=O)[O-])n1.[Na+]	0
CCOC(=O)Cc1nc(-c2ccc(Cl)cc2)nc(N)c1Cl	0
COC(=O)c1nc(-c2ccc([S+](C)[O-])cc2)nc(N)c1Cl (centres unmarked)	0

----------
Recorded Plant response rating, Pigweed values for a group of compounds are listed next.
test system: pigweed (Amaranthus retroflexus); test: Test D pre/postemergence; format: in vivo; conditions: Postemergence, 125 g ai/ha, scale 0 to 100 (100 = complete control)

compound	Plant response rating, Pigweed
COC(=O)c1nc(C2CC2C)nc(N)c1Br (stereo not shown)	60
COC(=O)c1nc(C2CC2)nc(N)c1Br	100
COC(=O)c1nc(C2CC2)nc(NO)c1Br	100
CCOC(=O)c1nc(C2CC2)nc(N)c1Cl	100

----------
system: giant foxtail (Setaria faberi); experiment: Test A pre/postemergence; assay type: in vivo; conditions: Preemergence, 125 g ai/ha; 0 to 100 scale where 0 is no effect and 100 is complete control; approximately ten days

smiles.string	Plant response rating, Foxtail, Giant
CCOC(=O)c1nc(-c2ccc(C)cc2)nc(N)c1Cl	0
COC(=O)c1nc(-c2ccc(Cl)cc2)nc(N)c1Br	0
COCCOCCOC(=O)c1nc(C2CC2)nc(N)c1Cl	5
Cc1ccc(-c2nc(N)c(Br)c(C(=O)O)n2)cc1	0
CCOC(OCC)c1nc(-c2ccc(I)cc2)nc(N)c1Cl	0
CCOC(=O)c1nc(-c2cc(Br)cc(OC)c2)nc(N)c1Cl	0

----------
tested on: morningglory (Ipomoea coccinea); assay: Test B pre/postemergence; type: in vivo; conditions: Preemergence, 500 g ai/ha; scale 0 to 100 (0 no effect, 100 complete control)

smiles.string	Plant response rating, Morningglory
CCOC(=O)c1nc(C2CC2)nc(NNC(C)=O)c1Br	70
CCOC(=O)c1nc(C2CC2)nc(N2CCCC2)c1Br	20
CCOC(=O)c1nc(C2CC2)nc(NOC)c1Br	100
CCOC(=O)c1nc(C2CC2)nc(NOC(C)(C)C)c1Br	100

----------
test system: barnyardgrass (Echinochloa crus-galli); experiment: Test B flooded paddy test; assay type: in vivo; conditions: Flood, 125 g ai/ha; scale 0 to 100
Recorded Plant response rating, Barnyardgrass values for a group of compounds are listed next.

compound	Plant response rating, Barnyardgrass
Nc1nc(C2CC2)nc(C(=O)O)c1Cl [Compound 135]	30
CCOC(=O)c1nc(-c2ccc(C(F)(F)F)cc2)nc(N)c1Br [Compound 60]	0
Nc1nc(-c2ccc(Cl)cc2)nc(C(=O)[O-])c1Cl.[Na+] [Compound 117]	20
CCOC(=O)c1nc(-c2ccc(I)cc2)nc(N)c1Cl [Compound 133]	0
Cc1ccc(-c2nc(N)c(Cl)c(C(=O)O)n2)cc1 [Compound 91]	0
CCCOC(=O)c1nc(C2CC2)nc(N)c1Cl [Compound 75]	0

----------
tested on: common ragweed (Ambrosia elatior); assay: Test C pre/postemergence; format: in vivo; conditions: Ambrosia artemisiifolia, pre-emergence, Preemergence, 250 g ai/ha; scale 0 to 100; read-out: Plant response rating, Ragweed
Recorded pest or weed control at 250 g/ha values for a group of compounds are listed next.

smiles.string	tested.target	pest or weed control at 250 g/ha (%)
CNc1nc(C2CC2)nc(C(=O)OC)c1Br	common ragweed (Ambrosia elatior)	100
CCOC(=O)c1nc(-c2ccc(Cl)cc2)nc(N)c1Cl	common ragweed (Ambrosia elatior)	100
CCOC(=O)c1nc(C2CC2)nc(N)c1Br	common ragweed (Ambrosia elatior)	100
COC(=O)c1nc(C2CC2)nc(N)c1Br	common ragweed (Ambrosia elatior)	0

----------
test system: kochia (Kochia scoparia); test: Test C pre/postemergence; assay type: in vivo; settings: Bassia scoparia, post-emergence, Postemergence, 125 g ai/ha; scale 0 to 100 (0 no effect, 100 complete control); read-out: Kochia plant response rating
From the text: […]
Recorded pest or weed control at 125 g/ha values for a group of molecules are listed next.
observable: pest or weed control at 125 g/ha (%)

molecule	measured.number
CNc1nc(C2CC2)nc(C(=O)OC)c1Br [Compound 5]	100
CCOC(=O)c1nc(C2CC2)nc(N)c1Cl [Compound 4]	100
COC(=O)c1nc(C2CC2)nc(N)c1F [Compound 25]	85
Nc1nc(-c2ccc(Cl)cc2)nc(C(=O)O)c1Cl [Compound 65]	90
COC(=O)c1nc(C(C)C)nc(N)c1Br [Compound 3]	90
COC(=O)c1nc(C2CC2)nc(N)c1Br [Compound 2]	95
Nc1nc(C2CC2)nc(C(=O)OCc2ccccc2)c1Br [Compound 22]	100
COC(=O)c1nc(C2CC2)nc(N)c1Cl [Compound 9]	100
Nc1nc(C2CC2)nc(C(=O)O)c1Br [Compound 8]	100
Nc1nc(C2CC2)nc(C(=O)OCc2ccccc2)c1Cl [Compound 78]	95

----------
system: Surinam grass (Brachiaria decumbens); experiment: Test B pre/postemergence; type: in vivo; settings: Urochloa decumbens, pre-emergence, Preemergence, 500 g ai/ha; scale 0 to 100 (0 no effect, 100 complete control); read-out: Surinam Grass plant response rating
Lab note - cut at 20% for pest or weed control at 500 g/ha: TRUE if strictly below, FALSE if not.

smiles.string	assigned.label
Nc1nc(C2CC2)nc(C=O)c1F	FALSE
COC(=O)c1nc(C2CC2)nc(NO)c1Br	FALSE
Nc1nc(C2CC2)nc(C(=O)O)c1Br	FALSE
CCOC(=O)c1nc(C(C)(C)C)nc(N)c1Br	TRUE
COC(=O)c1nc(C2CC2)nc(N)c1F	FALSE
COC(=O)c1nc(-c2ccccc2)nc(N)c1Br	TRUE

----------
test system: crabgrass (Digitaria sanguinalis); experiment: Test B pre/postemergence; assay type: in vivo; conditions: Postemergence, 125 g ai/ha; scale 0 to 100 (0 no effect, 100 complete control)
observable: Crabgrass plant response rating

smiles.string	measured.number
CCOC(=O)c1nc(C2CC2)nc(NCCN(C)C)c1Br	0
Nc1nc(-c2ccc(Cl)cc2)nc(C(=O)O)c1Br	80
CCOC(=O)c1nc(-c2ccc(I)cc2)nc(N)c1Cl	70

----------
Recorded Watergrass, Late plant response rating values for a group of molecules are listed next.
test system: late watergrass (Echinochloa oryzicola); test: Test E flooded paddy water application; format: in vivo; conditions: 125 g ai/ha; Flood; 21 days; scale 0 to 100 (0 no effect, 100 complete control)

smiles.string	Watergrass, Late plant response rating
COC(=O)c1nc(-c2ccc(Cl)cc2)nc(N)c1Cl	0
Nc1nc(-c2ccc(Br)cc2)nc(C(=O)O)c1Cl	0
COC(=O)c1nc(-c2ccc(Br)cc2)nc(N)c1Cl	0

----------
Recorded Plant response rating, Velvetleaf values for a group of molecules are listed next.
system: velvetleaf (Abutilon theophrasti); experiment: Test A pre/postemergence; format: in vivo; details: Preemergence, 125 g ai/ha; 0 to 100 scale where 0 is no effect and 100 is complete control; approximately ten days

molecule	Plant response rating, Velvetleaf
Nc1nc(C2CC2)nc(C(=O)OCCCO)c1Cl	90
CCOC(=O)Cc1nc(-c2ccc(Cl)cc2)nc(N)c1Cl	0
CCOC(=O)c1nc(-c2ccc(CC)cc2)nc(N)c1Cl	0
CCCOC(=O)c1nc(C2CC2)nc(N)c1Cl	80
Nc1nc(C2CC2)nc(C(=O)Oc2ccc(Cl)cc2)c1Cl	70
CCOC(=O)c1nc(-c2ccc(Cl)cc2Cl)nc(N)c1Cl	40
CCOC(=O)c1nc(-c2ccccc2F)nc(N)c1Cl	5
CCOC(=O)c1nc(-c2cc(Br)cc(OC)c2)nc(N)c1Cl	0
COC(=O)c1nc(-c2ccc([S+](C)[O-])cc2)nc(N)c1Cl (centres unmarked)	0
CCOC(=O)c1nc(-c2cccc(C(F)(F)F)c2)nc(N)c1Cl	0
CCOC(=O)c1nc(-c2ccc(OC)cc2)nc(N)c1Cl	0
CS(=O)(=O)NC(=O)c1nc(-c2ccc(Cl)cc2)nc(N)c1Cl	0
COC(=O)c1nc(-c2ccc(C)cc2)nc(N)c1Cl	15
Nc1nc(C2CC2)nc(OCC(=O)[O-])c1Cl.[Na+]	0
CCOC(=O)COc1nc(-c2ccc(Cl)cc2)nc(N)c1Cl	0
Nc1nc(C2CC2)nc(C(=O)OCc2ccc(Cl)cc2)c1Cl	75
CCOC(=O)COc1nc(C2CC2)nc(N)c1Cl	5
CCOC(=O)c1nc(-c2ccc(OC(F)(F)F)cc2)nc(N)c1Cl	0
CCOC(=O)c1nc(-c2ccc(Cl)c(Cl)c2)nc(N)c1Br	0
CC(C)c1nc(N)c(Cl)c(C(=O)[O-])n1.[Na+]	15
